Sourced from patent US7517907B2

# target.under.test: RARalpha (Homo sapiens)
# Sequence (P10276 183-417 limits assumed): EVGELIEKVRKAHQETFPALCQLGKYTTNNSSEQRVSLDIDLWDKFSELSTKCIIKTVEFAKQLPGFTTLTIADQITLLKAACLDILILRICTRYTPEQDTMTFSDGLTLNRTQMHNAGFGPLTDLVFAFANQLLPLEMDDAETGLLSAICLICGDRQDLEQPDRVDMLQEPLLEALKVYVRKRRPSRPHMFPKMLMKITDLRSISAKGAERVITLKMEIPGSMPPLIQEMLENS
# protocol: Transactivation assay (luciferase reporter, HeLa stable transfectants), RARalpha
# condition.label: apparent Kd from Schild regression, crossed curves against reference antagonist, HeLa cells; read-out: RARalpha Kdapp
# Description: [The procedure below names another target; the source lists this target under the same test.] The compounds according to the invention have activating properties on RARbeta-type receptors. This RARbeta receptor-activating activity can in particular be measured in a transactivation assay by means of the dissocation constant Kdapp (apparent), the AC50 (concentration giving 50% of the activity of the reference molecule) and also by means of the % activation. […] In this study, a constant is determined which represents the affinity of the molecule for the receptor. […]
measured.property: pKd
One number for each entry, as −log10 of the molar value.

# pKd of CC1(C)OCC(COc2ccc(-c3ccc4cc(C(=O)O)ccc4c3)cc2C23CC4CC(CC(C4)C2)C3)O1 (stereo not shown) = 5.10
